Biological target: UniProt P36544
Experiment: Automated patch-clamp electrophysiology functional assay (Assay A)
Type: cell-based
Conditions: IonFlux HT whole-cell population patch; HEK cell line stably expressing human RIC-3 and human α7; 40 μM acetylcholine; read-out: α7 nAChR EC50
Method: The α7 nAChR positive allosteric modulator (PAM) activity of the present compounds may be tested using assays known in the art. […] The assay was performed using the IonFlux HT in a whole-cell, population patch configuration. See Golden et al. Assay Drug Dev. Technol. (2011) 9:608-619. The compounds were assessed for their ability to modulate the function of the human α7 nAChR stably expressed in a HEK cell line both in the presence, and in the absence of the natural α7 agonist acetylcholine. […]
Entries are sorted into classes by EC50 as follows: b0 = under 600 nM, b1 = from 600 nM up to 2000 nM, b2 = 2000 nM and over

Check out these entries, answers already filled in.
# COMPOUND, CATEGORY_LABEL
rows = [
    ("CC1(C)[C@H](c2nc(-c3ccccc3)no2)[C@H]1c1ncc(S(N)(=O)=O)s1", "b1"),
    ("CC1(C)[C@@H](c2ccc(S(N)(=O)=O)nc2)[C@@H]1c1noc(C2CCCC2)n1 (racemic)", "b1"),
    ("CC1(C)[C@@H](c2ccc(S(N)(=O)=O)cn2)[C@@H]1c1nc(-c2cccc(C(F)(F)F)c2)no1", "b2"),
    ("CC1(C)[C@@H](c2ccc(S(N)(=O)=O)nc2)[C@@H]1c1nc(C2CCCC2)no1", "b0"),
    ("CC1(C)[C@H](c2ccc(S(N)(=O)=O)cn2)[C@H]1c1nc(C2CCCC2)no1 [Example E2]", "b2"),
]

Problem: Bin? CC1(C)[C@@H](c2ccc(S(N)(=O)=O)nc2)[C@@H]1c1noc(C2(C(F)(F)F)CC2)n1 (racemic)
Solution: b1

Problem: Try the compound `CC(C)c1noc([C@@H]2[C@@H](c3ccc(S(N)(=O)=O)nc3)C2(C)C)n1`
Solution: b0

Problem: Next entry: CC1(C)[C@@H](c2ccc(S(N)(=O)=O)cn2)[C@@H]1c1nc(-c2ccccc2)no1 [Example F10]
Solution: b1

Problem: Similarly, CC1(C)C(c2ccc(S(N)(=O)=O)nc2)C1c1cc(-c2cccc(F)c2)no1 (racemic) ?
Solution: b0

Problem: Query CC1(C)[C@@H](c2ccc(S(N)(=O)=O)nc2)[C@@H]1c1noc(-c2ccccc2)n1 (relative stereo) next
Solution: b1

Problem: Can you check CC1(C)[C@@H](c2ccc(S(N)(=O)=O)cn2)[C@@H]1c1nc(-c2ccccc2)no1 (racemic) [Example G2] next?
Solution: b1

Problem: Now the compound `CC1(C)[C@@H](c2ccc(S(N)(=O)=O)nc2)[C@@H]1c1nc(-c2cccc(F)c2)no1`
Solution: b0

Problem: Please do the same for NS(=O)(=O)c1ccc(C2CC2c2nc(-c3ccccc3)no2)cn1 (single isomer, unassigned) [Example 4] as well.
Solution: b0

Problem: Same question for CC(C)c1noc([C@H]2[C@H](c3ncc(S(N)(=O)=O)s3)C2(C)C)n1 (racemic) please.
Solution: b2

Problem: One more compound: `CC1(C)[C@@H](c2ccc(S(N)(=O)=O)nc2)[C@@H]1c1nc(CC2CC2)no1`
Solution: b1

Problem: Another compound to look at: `CC(C)c1noc([C@H]2[C@H](c3ccc(S(N)(=O)=O)cn3)C2(C)C)n1`
Solution: b1

###

Molecular target: human α7 nAChR (Homo sapiens, UniProt P36544)
Sequence (P36544 23-502): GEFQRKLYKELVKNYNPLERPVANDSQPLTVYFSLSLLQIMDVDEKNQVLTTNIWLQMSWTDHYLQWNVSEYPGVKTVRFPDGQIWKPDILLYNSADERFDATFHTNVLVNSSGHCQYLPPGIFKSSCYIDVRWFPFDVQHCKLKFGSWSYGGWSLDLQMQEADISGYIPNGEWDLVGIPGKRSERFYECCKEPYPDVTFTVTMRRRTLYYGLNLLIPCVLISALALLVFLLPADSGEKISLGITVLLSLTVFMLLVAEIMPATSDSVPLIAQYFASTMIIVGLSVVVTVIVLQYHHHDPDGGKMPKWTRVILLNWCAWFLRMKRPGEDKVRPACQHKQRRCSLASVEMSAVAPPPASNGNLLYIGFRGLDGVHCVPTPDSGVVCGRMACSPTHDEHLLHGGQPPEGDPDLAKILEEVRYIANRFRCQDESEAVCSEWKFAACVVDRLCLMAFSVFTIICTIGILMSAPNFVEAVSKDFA
Test: Automated patch-clamp electrophysiology functional assay (Assay A)
Type: cell-based
Details: IonFlux HT whole-cell population patch; HEK cell line stably expressing human RIC-3 and human α7; 40 μM acetylcholine; read-out: α7 nAChR EC50
Method: The α7 nAChR positive allosteric modulator (PAM) activity of the present compounds may be tested using assays known in the art. […] The assay was performed using the IonFlux HT in a whole-cell, population patch configuration. See Golden et al. Assay Drug Dev. Technol. (2011) 9:608-619. The compounds were assessed for their ability to modulate the function of the human α7 nAChR stably expressed in a HEK cell line both in the presence, and in the absence of the natural α7 agonist acetylcholine. […]
Known EC50 of a selection of compounds
Give just the number in nM; leave the unit off.

Problem: Consider the compound CC1(C)[C@@H](c2nc(-c3ccccc3)no2)[C@@H]1c1ncc(S(N)(=O)=O)s1 [Example 6] and give its measured EC50.
Solution: 590

Problem: Queued: CC1(C)C(c2ccc(S(N)(=O)=O)nc2)C1c1nc2ccccc2o1 (single isomer, unassigned) [Example 1]
Solution: 450

Problem: Also, CC1(C)[C@@H](c2ccc(S(N)(=O)=O)nc2)[C@@H]1c1ncc(C2CCCC2)s1 [Example B16] please.
Solution: 1500

Problem: Again, but for NS(=O)(=O)c1ccc([C@@H]2C[C@H]2c2nc(-c3ccccc3)no2)nc1 (racemic) [Example G6]
Solution: 1300
